testTarget: human adenosine A2b receptor (Homo sapiens, UniProt P29275)
Sequence (P29275 whole entry): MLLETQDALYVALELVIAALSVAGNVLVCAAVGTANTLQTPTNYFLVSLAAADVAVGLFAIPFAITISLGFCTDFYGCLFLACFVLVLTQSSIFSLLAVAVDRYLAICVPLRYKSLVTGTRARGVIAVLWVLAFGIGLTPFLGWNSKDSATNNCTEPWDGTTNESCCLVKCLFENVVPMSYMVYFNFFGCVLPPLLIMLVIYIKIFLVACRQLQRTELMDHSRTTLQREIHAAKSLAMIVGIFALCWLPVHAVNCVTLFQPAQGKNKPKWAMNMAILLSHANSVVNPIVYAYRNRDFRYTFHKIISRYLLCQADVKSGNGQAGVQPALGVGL
assayRemarks: Cellular in vitro reporter gene test for A2b receptor activity (antagonism of NECA)
Format: cell-based
Design: expressed in transfected cells; host or cells: CHO-K1 (Chinese hamster ovary) with CRE-luciferase reporter
testContext: recombinant CHO-K1 cells, CRE-luciferase reporter, co-incubation with EC50 concentration of NECA, 3 hours
Assign labels as follows, please: class 1 for IC50 below 0.02 µM; class 0 for IC50 equal to or exceeding 0.02 µM.

These solved cases illustrate the format of a correct answer.
{"compound": "Cc1c(CN2CCNC2=O)sc2c1c(=O)n(C1CC1)c(=O)n2CCOC(F)(F)F", "cat": "class 1"}
{"compound": "Cc1c(CN2CCNC2=O)sc2c1c(=O)n(C1(C)CC1)c(=O)n2CCOC(C)C", "cat": "class 0"}
{"compound": "Cc1c(CN2CCNC(=O)C2=O)sc2c1c(=O)n(C1CC1)c(=O)n2CCC(F)(F)F", "cat": "class 1"}

stdin: API: query returns whether the compound falls strictly under 0.02 µM in IC50. Query: COCCn1c(=O)n(C2CC2C(F)(F)F)c(=O)c2c(C)c(Cn3nc[nH]c3=O)sc21 (single isomer, unassigned) [Example 298]
stdout: class 0

stdin: API: query returns whether the compound falls strictly under 0.02 µM in IC50. Query: CO[C@H]1C[C@@H](n2c(=O)c3c(C)c(CN4CCNC4=NC#N)sc3n(CCC(F)(F)F)c2=O)C1
stdout: class 0

stdin: API: query returns whether the compound falls strictly under 0.02 µM in IC50. Query: Cc1c(CN2CCNC2=NC#N)sc2c1c(=O)n(C1CCC1)c(=O)n2CCC(F)(F)F
stdout: class 1

stdin: API: query returns whether the compound falls strictly under 0.02 µM in IC50. Query: Cc1c(CN2CCNC2=O)sc2c1c(=O)n(C1CC1(C)C)c(=O)n2CCC(F)(F)F (single isomer, unassigned) [Example 101]
stdout: class 0

stdin: API: query returns whether the compound falls strictly under 0.02 µM in IC50. Query: Cc1c(Cn2[nH]ccc2=O)sc2c1c(=O)n(C1CC(C)(C)C1)c(=O)n2CCC(F)(F)F
stdout: class 0
